activity coefficient values for the compounds below.
Assay: activity coefficient (dimensionless); of the first substance listed, at infinite dilution; xn = mol fraction of the nth substance listed
Details: 343.15 K; 101.33 kPa; Liquid; Chromatography; x1 = 0

{"compound": "CCOC(C)=O [ethyl acetate] + CCCCC(CC)CN(CC(CC)CCCC)C(=O)C(C)C", "activity coefficient": 0.985}
{"compound": "CCCc1ccccc1 [propylbenzene] + CCCCC(CC)CN(CC(CC)CCCC)C(=O)C(C)C", "activity coefficient": 11.5}
{"compound": "ClC(Cl)Cl [trichloromethane] + CCCCC(CC)CN(CC(CC)CCCC)C(=O)C(C)C", "activity coefficient": 0.746}
{"compound": "CCCC(=O)CC [3-hexanone] + CCCCC(CC)CN(CC(CC)CCCC)C(=O)C(C)C", "activity coefficient": 4.88}
{"compound": "CCCCCCCC [octane] + CCCCC(CC)CN(CC(CC)CCCC)C(=O)C(C)C", "activity coefficient": 6.04}
{"compound": "Cc1ccccc1 [toluene] + CCCCC(CC)CN(CC(CC)CCCC)C(=O)C(C)C", "activity coefficient": 3.25}
{"compound": "CCCCc1ccccc1 [butylbenzene] + CCCCC(CC)CN(CC(CC)CCCC)C(=O)C(C)C", "activity coefficient": 17.5}
{"compound": "CCCCCCCCCCC [undecane] + CCCCC(CC)CN(CC(CC)CCCC)C(=O)C(C)C", "activity coefficient": 31.5}
{"compound": "Cc1ccc(C)cc1 [1,4-dimethylbenzene] + CCCCC(CC)CN(CC(CC)CCCC)C(=O)C(C)C", "activity coefficient": 6.9}
{"compound": "CC(C)CC(C)(C)C [2,2,4-trimethylpentane] + CCCCC(CC)CN(CC(CC)CCCC)C(=O)C(C)C", "activity coefficient": 2.6}
{"compound": "CCCC(C)C [2-methylpentane] + CCCCC(CC)CN(CC(CC)CCCC)C(=O)C(C)C", "activity coefficient": 0.768}
{"compound": "CCCCCC [hexane] + CCCCC(CC)CN(CC(CC)CCCC)C(=O)C(C)C", "activity coefficient": 1.26}
{"compound": "ClC(Cl)(Cl)Cl [tetrachloromethane] + CCCCC(CC)CN(CC(CC)CCCC)C(=O)C(C)C", "activity coefficient": 1.22}
{"compound": "CC(C)=O [acetone] + CCCCC(CC)CN(CC(CC)CCCC)C(=O)C(C)C", "activity coefficient": 0.596}
{"compound": "CCCCCCCCCC [decane] + CCCCC(CC)CN(CC(CC)CCCC)C(=O)C(C)C", "activity coefficient": 18.3}
{"compound": "c1ccccc1 [benzene] + CCCCC(CC)CN(CC(CC)CCCC)C(=O)C(C)C", "activity coefficient": 1.65}
{"compound": "ClCCl [dichloromethane] + CCCCC(CC)CN(CC(CC)CCCC)C(=O)C(C)C", "activity coefficient": 0.41}
{"compound": "C=CCCCCCCCC [1-decene] + CCCCC(CC)CN(CC(CC)CCCC)C(=O)C(C)C", "activity coefficient": 16.8}
{"compound": "C1CCCCC1 [cyclohexane] + CCCCC(CC)CN(CC(CC)CCCC)C(=O)C(C)C", "activity coefficient": 1.74}
{"compound": "CC#N [acetonitrile] + CCCCC(CC)CN(CC(CC)CCCC)C(=O)C(C)C", "activity coefficient": 1.03}
{"compound": "CCCCCCC [heptane] + CCCCC(CC)CN(CC(CC)CCCC)C(=O)C(C)C", "activity coefficient": 2.78}
{"compound": "Cc1cccc(C)c1 [1,3-dimethylbenzene] + CCCCC(CC)CN(CC(CC)CCCC)C(=O)C(C)C", "activity coefficient": 7.2}
{"compound": "CCCCC [pentane] + CCCCC(CC)CN(CC(CC)CCCC)C(=O)C(C)C", "activity coefficient": 0.544}
{"compound": "CCCCCC(C)=O [2-heptanone] + CCCCC(CC)CN(CC(CC)CCCC)C(=O)C(C)C", "activity coefficient": 8.16}
{"compound": "C=O [methanal] + CCCCC(CC)CN(CC(CC)CCCC)C(=O)C(C)C", "activity coefficient": 0.048}
{"compound": "C=CCCCC [hex-1-ene] + CCCCC(CC)CN(CC(CC)CCCC)C(=O)C(C)C", "activity coefficient": 1.17}
{"compound": "C=CCCCCC [1-heptene] + CCCCC(CC)CN(CC(CC)CCCC)C(=O)C(C)C", "activity coefficient": 2.31}
{"compound": "C=CCCCCCC [oct-1-ene] + CCCCC(CC)CN(CC(CC)CCCC)C(=O)C(C)C", "activity coefficient": 4.86}
{"compound": "CCc1ccccc1 [ethylbenzene] + CCCCC(CC)CN(CC(CC)CCCC)C(=O)C(C)C", "activity coefficient": 6.78}
{"compound": "CCCCCCCCC [nonane] + CCCCC(CC)CN(CC(CC)CCCC)C(=O)C(C)C", "activity coefficient": 13.7}

###

activity coefficient values for the molecules below.
Assay: activity coefficient (dimensionless); of the first substance listed, at infinite dilution; xn = mol fraction of the nth substance listed
Details: 363.15 K; 101.33 kPa; Liquid; Chromatography; x1 = 0

{"molecule": "Cc1ccc(C)cc1 [1,4-dimethylbenzene] + CCCCC(CC)CN(CC(CC)CCCC)C(=O)C(C)C", "activity coefficient": 3.75}
{"molecule": "CC(C)=O [acetone] + CCCCC(CC)CN(CC(CC)CCCC)C(=O)C(C)C", "activity coefficient": 0.375}
{"molecule": "C=CCCCCC [1-heptene] + CCCCC(CC)CN(CC(CC)CCCC)C(=O)C(C)C", "activity coefficient": 1.25}
{"molecule": "CCCC(=O)CC [3-hexanone] + CCCCC(CC)CN(CC(CC)CCCC)C(=O)C(C)C", "activity coefficient": 2.86}
{"molecule": "CCCCCCC [heptane] + CCCCC(CC)CN(CC(CC)CCCC)C(=O)C(C)C", "activity coefficient": 2.02}

###

Assay: activity coefficient (dimensionless); of the first substance listed, at infinite dilution; xn = mol fraction of the nth substance listed
Details: 353.15 K; 101.33 kPa; Liquid; Chromatography; x1 = 0
Rule: activity coefficient below 4 gives t. Equal to or above 4 gives f.

{"compound": "CCCc1ccccc1 [propylbenzene] + CCCCC(CC)CN(CC(CC)CCCC)C(=O)C(C)C", "category": "f"}
{"compound": "CCCC(C)C [2-methylpentane] + CCCCC(CC)CN(CC(CC)CCCC)C(=O)C(C)C", "category": "t"}
{"compound": "CCCCCC [hexane] + CCCCC(CC)CN(CC(CC)CCCC)C(=O)C(C)C", "category": "t"}
{"compound": "CC(C)=O [acetone] + CCCCC(CC)CN(CC(CC)CCCC)C(=O)C(C)C", "category": "t"}
{"compound": "CCCCc1ccccc1 [butylbenzene] + CCCCC(CC)CN(CC(CC)CCCC)C(=O)C(C)C", "category": "f"}
{"compound": "C=CCCCCCCCC [1-decene] + CCCCC(CC)CN(CC(CC)CCCC)C(=O)C(C)C", "category": "f"}
{"compound": "CCCC(=O)CC [3-hexanone] + CCCCC(CC)CN(CC(CC)CCCC)C(=O)C(C)C", "category": "t"}
{"compound": "Cc1ccc(C)cc1 [1,4-dimethylbenzene] + CCCCC(CC)CN(CC(CC)CCCC)C(=O)C(C)C", "category": "f"}
{"compound": "C=O [methanal] + CCCCC(CC)CN(CC(CC)CCCC)C(=O)C(C)C", "category": "t"}
{"compound": "CCCCC [pentane] + CCCCC(CC)CN(CC(CC)CCCC)C(=O)C(C)C", "category": "t"}
{"compound": "CCCCCCCCCC [decane] + CCCCC(CC)CN(CC(CC)CCCC)C(=O)C(C)C", "category": "f"}
{"compound": "C=CCCCCC [1-heptene] + CCCCC(CC)CN(CC(CC)CCCC)C(=O)C(C)C", "category": "t"}
{"compound": "CCOC(C)=O [ethyl acetate] + CCCCC(CC)CN(CC(CC)CCCC)C(=O)C(C)C", "category": "t"}
{"compound": "C=CCCCCCC [oct-1-ene] + CCCCC(CC)CN(CC(CC)CCCC)C(=O)C(C)C", "category": "t"}
{"compound": "CCCCCCC [heptane] + CCCCC(CC)CN(CC(CC)CCCC)C(=O)C(C)C", "category": "t"}
{"compound": "C1CCCCC1 [cyclohexane] + CCCCC(CC)CN(CC(CC)CCCC)C(=O)C(C)C", "category": "t"}

###

Test: activity coefficient (dimensionless); of the first substance listed, at infinite dilution; xn = mol fraction of the nth substance listed
Settings: 373.15 K; 101.33 kPa; Liquid; Chromatography; x1 = 0
Would you please tag the item y when its activity coefficient is 1 or above, and n when it is below?

{"compound": "CCCC(=O)CC [3-hexanone] + CCCCC(CC)CN(CC(CC)CCCC)C(=O)C(C)C", "category": "y"}
{"compound": "CCCCCCC [heptane] + CCCCC(CC)CN(CC(CC)CCCC)C(=O)C(C)C", "category": "y"}
{"compound": "CC(C)=O [acetone] + CCCCC(CC)CN(CC(CC)CCCC)C(=O)C(C)C", "category": "n"}
{"compound": "CCCCCCCCCCC [undecane] + CCCCC(CC)CN(CC(CC)CCCC)C(=O)C(C)C", "category": "y"}
{"compound": "c1ccccc1 [benzene] + CCCCC(CC)CN(CC(CC)CCCC)C(=O)C(C)C", "category": "n"}
{"compound": "C=CCCCCCCCC [1-decene] + CCCCC(CC)CN(CC(CC)CCCC)C(=O)C(C)C", "category": "y"}
{"compound": "CCCCc1ccccc1 [butylbenzene] + CCCCC(CC)CN(CC(CC)CCCC)C(=O)C(C)C", "category": "y"}
{"compound": "CC(C)CC(C)(C)C [2,2,4-trimethylpentane] + CCCCC(CC)CN(CC(CC)CCCC)C(=O)C(C)C", "category": "y"}
{"compound": "C=O [methanal] + CCCCC(CC)CN(CC(CC)CCCC)C(=O)C(C)C", "category": "n"}
{"compound": "CCCCCCCC [octane] + CCCCC(CC)CN(CC(CC)CCCC)C(=O)C(C)C", "category": "y"}
{"compound": "CCCc1ccccc1 [propylbenzene] + CCCCC(CC)CN(CC(CC)CCCC)C(=O)C(C)C", "category": "y"}
{"compound": "Cc1ccc(C)cc1 [1,4-dimethylbenzene] + CCCCC(CC)CN(CC(CC)CCCC)C(=O)C(C)C", "category": "y"}
{"compound": "CCc1ccccc1 [ethylbenzene] + CCCCC(CC)CN(CC(CC)CCCC)C(=O)C(C)C", "category": "y"}
{"compound": "CC#N [acetonitrile] + CCCCC(CC)CN(CC(CC)CCCC)C(=O)C(C)C", "category": "n"}
{"compound": "Cc1cccc(C)c1 [1,3-dimethylbenzene] + CCCCC(CC)CN(CC(CC)CCCC)C(=O)C(C)C", "category": "y"}
{"compound": "CCCCCC [hexane] + CCCCC(CC)CN(CC(CC)CCCC)C(=O)C(C)C", "category": "n"}
{"compound": "ClC(Cl)Cl [trichloromethane] + CCCCC(CC)CN(CC(CC)CCCC)C(=O)C(C)C", "category": "n"}
{"compound": "ClC(Cl)(Cl)Cl [tetrachloromethane] + CCCCC(CC)CN(CC(CC)CCCC)C(=O)C(C)C", "category": "n"}
{"compound": "CCCCCCCCCC [decane] + CCCCC(CC)CN(CC(CC)CCCC)C(=O)C(C)C", "category": "y"}
{"compound": "CCCCC [pentane] + CCCCC(CC)CN(CC(CC)CCCC)C(=O)C(C)C", "category": "n"}
{"compound": "CCOC(C)=O [ethyl acetate] + CCCCC(CC)CN(CC(CC)CCCC)C(=O)C(C)C", "category": "n"}
{"compound": "CCCC(C)C [2-methylpentane] + CCCCC(CC)CN(CC(CC)CCCC)C(=O)C(C)C", "category": "n"}
{"compound": "C=CCCCCCC [oct-1-ene] + CCCCC(CC)CN(CC(CC)CCCC)C(=O)C(C)C", "category": "y"}
{"compound": "CCCCCC(C)=O [2-heptanone] + CCCCC(CC)CN(CC(CC)CCCC)C(=O)C(C)C", "category": "y"}
{"compound": "Cc1ccccc1 [toluene] + CCCCC(CC)CN(CC(CC)CCCC)C(=O)C(C)C", "category": "y"}
{"compound": "CCCCCCCCC [nonane] + CCCCC(CC)CN(CC(CC)CCCC)C(=O)C(C)C", "category": "y"}
{"compound": "C=CCCCC [hex-1-ene] + CCCCC(CC)CN(CC(CC)CCCC)C(=O)C(C)C", "category": "n"}
{"compound": "C1CCCCC1 [cyclohexane] + CCCCC(CC)CN(CC(CC)CCCC)C(=O)C(C)C", "category": "n"}
{"compound": "ClCCl [dichloromethane] + CCCCC(CC)CN(CC(CC)CCCC)C(=O)C(C)C", "category": "n"}
